- Assayed system: HIV-1 YU-2 gp120 (HIV-1 (YU-2), UniProt P35961)
- Procedure text: SPR
pIC50: −log10 of the molar value.
Quantity kind: pIC50

[[record]]
binder = "Fab m18 K31R (LCDR1) (Fab, V domains shown) VH: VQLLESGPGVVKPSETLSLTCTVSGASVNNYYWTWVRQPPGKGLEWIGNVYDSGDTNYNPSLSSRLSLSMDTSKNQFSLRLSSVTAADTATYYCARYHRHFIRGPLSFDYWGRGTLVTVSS VL: LQMTQSPSFLSASVGDRVSITCRASQDIQRFLAWYQLTPGDAPKLLMYSASTLQSGVPSRFSGSGSGTEFTLTISGLQPEDFATYYCQHLKRYPYTFGQGTKLEIS"
quantity_kind = "pIC50"
measured = "< 6.00"


Next, consider the following binder.
# input What pIC50 value was documented for this binder, Fab m18 P95A (LCDR3) (Fab, V domains shown) VH: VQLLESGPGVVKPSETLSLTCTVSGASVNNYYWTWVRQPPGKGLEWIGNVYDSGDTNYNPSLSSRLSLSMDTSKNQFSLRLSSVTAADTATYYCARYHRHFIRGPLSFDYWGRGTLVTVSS VL: LQMTQSPSFLSASVGDRVSITCRASQDIQKFLAWYQLTPGDAPKLLMYSASTLQSGVPSRFSGSGSGTEFTLTISGLQPEDFATYYCQHLKRYAYTFGQGTKLEIS ?
# output < 6.00

This collection of values is drawn from paper PMC3499988.
